- experimental-system: JAK2/JAK2 homdimeric complex (Homo sapiens (Human))
- assay-protocol: GM-CSF Induced pSTAT5 in Human PBMC
- test-settings: GM-CSF 5 ng/mL for 20 minutes, pSTAT5 by MSD, read-out: PBMC_GMCSF_pSTAT5 IC50
Here, each record is paired with measured IC50 data.

# example entries with known answers
INSERT INTO assay_data (compound, outcome_measure, measured_value) VALUES
  ('CNC(=O)c1occc1Nc1cc(NC)n2ncc(C(=O)NC3CC3)c2n1', 'IC50', '> 50 µM'),
  ('CNc1cc(Nc2cc(F)cnc2OC2CC2)nc2c(C(=O)N[C@H]3C[C@H]3F)cnn12', 'IC50', '> 50 µM'),
  ('CNc1cc(Nc2cccnc2OC2CC2)nc2c(C(=O)NC3CCC3)cnn12', 'IC50', '> 12.5 µM');

Q) Recorded IC50 of CNc1cc(Nc2cc(C)cc(C)c2)nc2c(C(N)=O)cnn12 , please.
A) > 50 µM

Q) I would be grateful if you could share the reported IC50 for CNc1cc(Nc2cccnc2OC2CC2)nc2c(C(=O)N[C@@H]3CC[C@H]3O)cnn12 (stereo in doubt) .
A) > 50 µM

---

IC50 listing for selected molecules.
- experimental-system: JAK2/JAK2 homdimeric complex (Homo sapiens (Human), UniProt O60674)
- Sequence (O60674 whole entry): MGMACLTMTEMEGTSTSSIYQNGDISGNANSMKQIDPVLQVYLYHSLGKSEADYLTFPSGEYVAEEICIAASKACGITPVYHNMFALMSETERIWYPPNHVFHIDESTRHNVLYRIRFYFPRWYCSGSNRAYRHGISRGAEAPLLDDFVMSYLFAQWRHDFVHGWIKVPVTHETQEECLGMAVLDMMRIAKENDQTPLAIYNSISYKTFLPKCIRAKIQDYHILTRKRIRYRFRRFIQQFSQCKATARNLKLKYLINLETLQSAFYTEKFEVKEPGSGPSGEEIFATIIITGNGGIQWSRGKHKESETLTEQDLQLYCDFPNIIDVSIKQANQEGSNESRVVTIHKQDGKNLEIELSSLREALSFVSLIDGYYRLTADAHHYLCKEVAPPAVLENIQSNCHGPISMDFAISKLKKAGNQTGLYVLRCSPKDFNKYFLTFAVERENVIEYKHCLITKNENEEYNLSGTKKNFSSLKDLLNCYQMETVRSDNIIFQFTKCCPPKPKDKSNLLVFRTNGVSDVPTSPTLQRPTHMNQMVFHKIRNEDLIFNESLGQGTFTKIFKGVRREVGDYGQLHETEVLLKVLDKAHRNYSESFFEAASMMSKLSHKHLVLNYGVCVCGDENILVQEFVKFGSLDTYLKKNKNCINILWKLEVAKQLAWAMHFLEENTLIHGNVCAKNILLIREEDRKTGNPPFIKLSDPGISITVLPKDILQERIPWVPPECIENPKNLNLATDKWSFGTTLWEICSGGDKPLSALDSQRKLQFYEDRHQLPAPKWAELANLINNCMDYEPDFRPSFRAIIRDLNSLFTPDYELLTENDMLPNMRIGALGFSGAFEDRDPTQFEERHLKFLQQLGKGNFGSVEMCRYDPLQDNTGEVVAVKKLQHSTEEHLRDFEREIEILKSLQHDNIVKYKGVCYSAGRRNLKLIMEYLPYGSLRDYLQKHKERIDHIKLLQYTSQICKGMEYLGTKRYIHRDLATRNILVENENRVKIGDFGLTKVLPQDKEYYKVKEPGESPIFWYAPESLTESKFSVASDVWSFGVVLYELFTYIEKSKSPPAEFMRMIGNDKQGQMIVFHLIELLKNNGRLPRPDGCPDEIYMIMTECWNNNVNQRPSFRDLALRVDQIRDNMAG
- Sequence (P32927 17-897 partner): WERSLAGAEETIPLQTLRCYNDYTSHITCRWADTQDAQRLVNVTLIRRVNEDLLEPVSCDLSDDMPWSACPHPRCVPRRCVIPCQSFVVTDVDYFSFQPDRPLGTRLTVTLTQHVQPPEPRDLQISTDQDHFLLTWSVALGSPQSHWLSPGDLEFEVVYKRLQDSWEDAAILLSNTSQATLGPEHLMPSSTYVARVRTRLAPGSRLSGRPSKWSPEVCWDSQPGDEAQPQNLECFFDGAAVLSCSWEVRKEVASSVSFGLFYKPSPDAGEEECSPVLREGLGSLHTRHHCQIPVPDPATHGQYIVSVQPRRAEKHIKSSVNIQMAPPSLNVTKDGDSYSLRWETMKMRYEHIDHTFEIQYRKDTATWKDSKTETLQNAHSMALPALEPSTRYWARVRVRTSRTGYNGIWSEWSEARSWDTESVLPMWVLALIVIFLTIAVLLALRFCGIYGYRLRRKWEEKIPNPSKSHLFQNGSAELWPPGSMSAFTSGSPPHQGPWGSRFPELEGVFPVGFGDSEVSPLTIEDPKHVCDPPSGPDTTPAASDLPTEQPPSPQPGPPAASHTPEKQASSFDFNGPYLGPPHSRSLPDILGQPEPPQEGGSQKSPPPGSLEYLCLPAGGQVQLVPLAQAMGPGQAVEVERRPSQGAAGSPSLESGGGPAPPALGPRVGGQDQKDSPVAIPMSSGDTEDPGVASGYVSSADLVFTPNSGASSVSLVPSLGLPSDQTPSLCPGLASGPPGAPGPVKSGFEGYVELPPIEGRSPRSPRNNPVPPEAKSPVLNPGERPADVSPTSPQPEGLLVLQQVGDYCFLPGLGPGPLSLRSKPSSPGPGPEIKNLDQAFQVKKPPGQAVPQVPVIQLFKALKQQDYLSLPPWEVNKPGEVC
- assay-protocol: GM-CSF Induced pSTAT5 in Human PBMC
- test-settings: GM-CSF 5 ng/mL for 20 minutes, pSTAT5 by MSD, read-out: PBMC_GMCSF_pSTAT5 IC50

Illustrative cases are given below, each with its answer.
INSERT INTO measurements (molecule, measured_value) VALUES
  ('CNc1cc(Nc2cccnc2OC)nc2c(C(=O)N[C@H]3CC[C@@H]3O)cnn12 [I-395]', '> 12.5 µM'),
  ('CNc1cc(Nc2cccn([C@H]3CCC[C@H](OC)C3)c2=O)nc2c(C(=O)N[C@H]3CC[C@@H]3OC)cnn12 [I-1098]', '> 50 µM');

Turning to the following molecule.
Q) So what IC50 did CNc1cc(Nc2cccc(-c3nccs3)c2Cl)nc2c(C(N)=O)cnn12 [I-16] get with JAK2/JAK2 homdimeric complex (Homo sapiens (Human), UniProt O60674)?
A) > 2.5 µM

---

// values below are reported IC50
- experimental-system: JAK2/JAK2 homdimeric complex (Homo sapiens (Human))
- assay-protocol: GM-CSF Induced pSTAT5 in Human PBMC
- Assay type: cell-based
- test-settings: GM-CSF 5 ng/mL for 20 minutes, pSTAT5 by MSD, read-out: PBMC_GMCSF_pSTAT5 IC50

INSERT INTO results (compound, measured_value) VALUES
  ('CNc1cc(Nc2cc(F)cn(-c3ccccn3)c2=O)nc2c(C(=O)N[C@H]3C[C@H]3F)cnn12 [I-194]', '> 12.5 µM');

Q) Name the recorded IC50 for CNc1cc(Nc2cccn(C(C)C)c2=O)nc2c(C(=O)N[C@H]3CC[C@@H]3OC)cnn12 [I-980] .
A) > 50 µM

Q) So what does the record say about IC50 for CNc1cc(Nc2cccn(-c3cc(C)n(C)n3)c2=O)nc2c(C(=O)NC3CC3)cnn12 [I-138] ?
A) > 50 µM

Q) Consider the compound CNc1cc(Nc2cccn(-c3cn(C)nc3F)c2=O)nc2c(C(=O)N[C@H]3C[C@H]3F)cnn12 [I-607] and give its measured IC50.
A) > 50 µM

Q) Recorded IC50 for CNc1cc(Nc2cccc3ocnc23)nc2c(C(=O)N[C@@H]3CC[C@@H]3O)cnn12 [I-661] , please?
A) > 12.5 µM

Q) Record request: IC50 value, item CNc1cc(Nc2cc(Cl)cn(-c3ccn(C)n3)c2=O)nc2c(C(=O)NC3CC3)cnn12 [I-310]
A) > 2.5 µM

---

- experimental-system: human TYK2 (JH2domain-pseudokinase) (Homo sapiens (Human))
- assay-protocol: TYK2 JH2 Domain Binding Assay (KINOMEscan)
outcome-measure: Kd

Worked set:
INSERT INTO assay_data (molecule, measured_value) VALUES
  ('CNc1cc(Nc2cc(C)cnc2OC(C)C)nc2c(C(=O)N[C@H]3C[C@H]3F)cnn12', '< 0.2 nM'),
  ('CNc1cc(Nc2cccc3ocnc23)nc2c(C(=O)N[C@H]3COC[C@H]3O)cnn12', '< 0.2 nM'),
  ('CNc1cc(Nc2cccn([C@H]3CC[C@H]3O)c2=O)nc2c(C(=O)N[C@H]3CC[C@@H]3OC)cnn12 [I-1345]', '< 0.2 nM'),
  ('CNc1cc(Nc2cccn(-c3nccs3)c2=O)nc2c(C(=O)N[C@H]3C[C@H]3F)cnn12', '0.2 to 1 nM'),
  ('NC(=O)c1cnn2c(N)cc(Nc3cccn([C@H]4CC[C@H](O)CC4)c3=O)nc12', '0.2 to 1 nM');

Q) Form field: reported Kd of CNc1cc(Nc2cccn(C3CCN(CCF)CC3)c2=O)nc2c(C(=O)NCC(C)(C)CO)cnn12
A) < 0.2 nM

Q) Reported Kd for CNc1cc(Nc2cc(C)cn(-c3ccnn3C)c2=O)nc2c(C(N)=O)cnn12 : what is it?
A) 0.2 to 1 nM

Q) Which Kd is listed for CNc1cc(Nc2cccn([C@H]3C[C@@H]3F)c2=O)nc2c(C(=O)N[C@H]3CC[C@H]3O)cnn12 (mixture of isomers) ?
A) < 0.2 nM

---

- experimental-system: human TYK2 (JH2domain-pseudokinase) (Homo sapiens (Human), UniProt P29597)
- assay-protocol: TYK2 JH2 Domain Binding Assay (KINOMEscan)
The entries below come with measured Kd values attached.

Below are worked cases with known answers.
INSERT INTO results (entry_smiles, measured_value) VALUES
  ('CNc1cc(Nc2cccn(-c3ccccc3F)c2=O)nc2c(C(=O)NC[C@@H](C)CO)cnn12', '< 0.2 nM'),
  ('CNc1cc(Nc2cccn(C3CC4(COC4)C3)c2=O)nc2c(C(=O)NC3CC3)cnn12', '< 0.2 nM'),
  ('CNc1cc(Nc2cccn([C@@H]3CCCOC3)c2=O)nc2c(C(=O)N[C@@H]3CCC[C@@](C)(OC)C3)cnn12', '< 0.2 nM'),
  ('CNc1cc(-c2cn(CCN3CCOCC3)c3ncccc23)nc2c(C(=O)N[C@H]3CC[C@H]3O)cnn12', '< 0.2 nM'),
  ('CNc1cc(Nc2cc(Cl)cn(-c3cn(C4CC4)nc3C)c2=O)nc2c(C(=O)NC3CCC3)cnn12', '0.2 to 1 nM'),
  ('CNc1cc(Nc2cccn(C3CC(F)(F)C3)c2=O)nc2c(C(=O)N[C@H]3CC[C@@H]3OC)cnn12', '0.2 to 1 nM'),
  ('CNc1cc(Nc2cc(F)cn(-c3ccccn3)c2=O)nc2c(C(=O)N[C@H]3C[C@H]3F)cnn12', '< 0.2 nM');

Q) Give the reported Kd for CNc1cc(Nc2cccc([C@H]3CCCCO3)n2)nc2c(C(=O)NCC3(CO)CC3)cnn12 (system: human TYK2 (JH2domain-pseudokinase) (Homo sapiens (Human), UniProt P29597)).
A) < 0.2 nM

---

The reader will find reported IC50 values listed item by item below.
- experimental-system: Tyk2/JAK2 (heterodimeric complex) (Homo sapiens (Human))
- Sequence (P29597 whole entry, other chains not shown): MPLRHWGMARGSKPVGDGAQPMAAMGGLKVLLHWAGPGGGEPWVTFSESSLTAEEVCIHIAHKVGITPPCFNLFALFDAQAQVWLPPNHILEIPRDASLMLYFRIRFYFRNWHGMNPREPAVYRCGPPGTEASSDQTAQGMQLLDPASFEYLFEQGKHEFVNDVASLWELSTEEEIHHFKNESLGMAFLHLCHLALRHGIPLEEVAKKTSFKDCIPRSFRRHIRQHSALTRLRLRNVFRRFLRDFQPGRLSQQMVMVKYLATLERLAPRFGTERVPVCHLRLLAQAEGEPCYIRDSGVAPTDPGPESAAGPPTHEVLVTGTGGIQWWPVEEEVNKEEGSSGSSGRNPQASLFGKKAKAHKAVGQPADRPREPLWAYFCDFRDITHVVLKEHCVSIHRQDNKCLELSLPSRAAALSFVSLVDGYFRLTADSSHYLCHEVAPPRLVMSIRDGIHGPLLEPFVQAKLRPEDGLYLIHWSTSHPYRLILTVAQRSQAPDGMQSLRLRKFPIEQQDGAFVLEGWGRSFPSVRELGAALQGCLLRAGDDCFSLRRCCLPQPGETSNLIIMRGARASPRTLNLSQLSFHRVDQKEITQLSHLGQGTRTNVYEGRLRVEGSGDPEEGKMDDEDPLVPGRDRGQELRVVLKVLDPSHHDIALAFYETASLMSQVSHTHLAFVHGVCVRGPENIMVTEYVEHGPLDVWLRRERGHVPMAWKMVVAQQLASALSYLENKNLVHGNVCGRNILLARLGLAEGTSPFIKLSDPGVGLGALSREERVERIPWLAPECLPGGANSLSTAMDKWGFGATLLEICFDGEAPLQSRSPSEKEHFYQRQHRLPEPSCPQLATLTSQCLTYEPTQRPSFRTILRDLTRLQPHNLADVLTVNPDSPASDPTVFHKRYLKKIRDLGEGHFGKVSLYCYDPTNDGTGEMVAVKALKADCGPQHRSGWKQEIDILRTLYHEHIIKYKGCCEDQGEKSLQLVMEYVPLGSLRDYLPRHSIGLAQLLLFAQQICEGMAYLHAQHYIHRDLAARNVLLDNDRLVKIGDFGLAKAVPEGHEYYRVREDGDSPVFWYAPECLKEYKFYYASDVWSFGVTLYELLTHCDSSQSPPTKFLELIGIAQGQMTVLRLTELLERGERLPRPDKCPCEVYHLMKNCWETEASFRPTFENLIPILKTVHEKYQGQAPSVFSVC
- assay-protocol: IL-12 Induced pSTAT4 in Human PBMC
- test-settings: 1.7 ng/mL IL-12

INSERT INTO assay_data (compound, measured_value) VALUES
  ('CNc1cc(Nc2cccn(-c3ccn(C)n3)c2=O)nc2c(C(=O)NC3CC3)cnn12', '< 100 nM');

Q) // IC50 lookup, key: CNc1cc(Nc2cccn(C3CCOCC3)c2=O)nc2c(C(=O)N[C@H]3C[C@H]3F)cnn12
A) < 100 nM

Q) Request the reported IC50 associated with CNc1cc(Nc2cccn(-c3ccc(C4CC4)nn3)c2=O)nc2c(C(=O)NC3CCC3)cnn12
A) < 100 nM

Q) Please look up its IC50: CNc1cc(Nc2cccc3ocnc23)nc2c(C(=O)N[C@H]3COC[C@H]3O)cnn12
A) 100 to 500 nM

Q) Fill in the blank: the reported IC50 of [2H]C([2H])([2H])Oc1ncccc1Nc1cc(NC)n2ncc(C(=O)N[C@H]3CC[C@H](O)C3)c2n1 is ____.
A) < 100 nM

Q) // IC50 lookup, key: CNc1cc(Nc2cc(Cl)cn(C3CCOCC3)c2=O)nc2c(C(=O)N[C@H]3CC[C@@H]3O)cnn12
A) < 100 nM

---

- experimental-system: human TYK2 (JH2domain-pseudokinase) (Homo sapiens (Human), UniProt P29597)
- assay-protocol: TYK2 JH2 Domain Binding Assay (KINOMEscan)
pKd: −log10 of the molar value.
outcome-measure: pKd

Here are 5 compounds together with their reported answers.
INSERT INTO measurements (compound, experimental_system, measured_value) VALUES
  ('CNc1cc(Nc2cccnc2OC)nc2c(C(=O)NCCC3(O)CC3)cnn12', 'human TYK2 (JH2domain-pseudokinase) (Homo sapiens (Human), UniProt P29597)', '9.00 to 9.70'),
  ('CNc1cc(-c2cn(C(C)C)c3ncccc23)nc2c(C(=O)N[C@H]3CC[C@@H]3O)cnn12 [I-639]', 'human TYK2 (JH2domain-pseudokinase) (Homo sapiens (Human), UniProt P29597)', '> 9.70'),
  ('CNc1cc(Nc2cccn([C@H]3CC[C@H](OC)CC3)c2=O)nc2c(C(=O)N[C@H]3COC[C@H]3O)cnn12 [I-832]', 'human TYK2 (JH2domain-pseudokinase) (Homo sapiens (Human), UniProt P29597)', '8.00 to 9.00'),
  ('CNc1cc(Nc2cccn(C3CCN(C)CC3)c2=O)nc2c(C(=O)NC3CC3)cnn12', 'human TYK2 (JH2domain-pseudokinase) (Homo sapiens (Human), UniProt P29597)', '9.00 to 9.70'),
  ('CNc1cc(Nc2cccn([C@H]3CCC[C@@H]3OC)c2=O)nc2c(C(=O)NC3CC3)cnn12 [I-436]', 'human TYK2 (JH2domain-pseudokinase) (Homo sapiens (Human), UniProt P29597)', '9.00 to 9.70');

Q) Sample CNc1cc(-c2cn(C3CCOCC3)c3ncc(F)cc23)nc2c(C(=O)N[C@H]3CC[C@@H]3O)cnn12 — what was its pKd?
A) > 9.70

Q) Field request: pKd | item: CNc1cc(Nc2cccc([C@@H]3CCCOC3)n2)nc2c(C(=O)N[C@@H]3CC[C@H]3O)cnn12
A) > 9.70

Q) Given the compound CNc1cc(Nc2cccn([C@H]3CCCOC3)c2=O)nc2c(C(=O)N[C@H]3C[C@@H]3OC)cnn12 , what is its reported pKd?
A) > 9.70
